Target: T1, 4H2991-AA
T1 chain: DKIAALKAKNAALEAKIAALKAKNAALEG
Test: two-hybrid library CCmax;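 note: natural log of median RNA to DNA barcode read ratio; higher means stronger binding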
Conditions: mean of both orientations
Below, each entry is listed with its recorded interaction score.

| Binder | interaction score |
| --- | --- |
| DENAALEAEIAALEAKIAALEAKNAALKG [4H1064-AA] | -0.846 |
| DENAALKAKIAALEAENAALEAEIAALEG [4H1809-AA] | -0.235 |
| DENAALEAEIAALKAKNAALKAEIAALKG [4H1146-AA] | -0.0174 |
| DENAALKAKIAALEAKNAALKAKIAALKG [4H1854-AA] | -1.61 |
| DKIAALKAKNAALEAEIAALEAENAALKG [4H2948-AA] | -0.169 |
| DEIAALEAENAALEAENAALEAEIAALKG [4H146-AA] | -0.675 |
| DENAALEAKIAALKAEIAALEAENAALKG [4H1348-AA] | -1.75 |
| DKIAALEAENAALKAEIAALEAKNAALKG [4H2248-AA] | -0.183 |
| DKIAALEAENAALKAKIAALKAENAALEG [4H2283-AA] | -1.95 |
| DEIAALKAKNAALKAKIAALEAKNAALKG [4H1000-AA] | -1.19 |
| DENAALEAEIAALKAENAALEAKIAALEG [4H1109-AA] | -0.637 |
